Each entry below carries its recorded PBM binding z-score.
test system: RARg homodimer (NR concentration 270 nM); assay: PBM binding z-score (relative to random genomic background probes); higher = stronger binding; sequences stand for … in GC…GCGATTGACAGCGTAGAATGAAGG
Please give the numeric answer without any surrounding text.

In the examples that follow, each entry is paired with its recorded PBM binding z-score.
Ask: Given the sequence ATCTCTAGGTATAGTTCAGTGAAAGATCGATAGA , write its reported PBM binding z-score.
Reply: 1

Ask: Given the sequence CGTCCAAGGTCTAAGGTCAGTGAAGAGATGACGG , write its reported PBM binding z-score.
Reply: 4.02

Ask: Given the sequence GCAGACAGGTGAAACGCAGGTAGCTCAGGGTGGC , write its reported PBM binding z-score.
Reply: -0.0233

Ask: Given the sequence CGAACTAGGTCATCCAGGACAGGGAATACATTGA , write its reported PBM binding z-score.
Reply: 4.29

Ask: Given the sequence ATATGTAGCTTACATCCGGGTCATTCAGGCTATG , write its reported PBM binding z-score.
Reply: 1.02

Ask: Given the sequence TCTTGTAGATCGAAGGTTAAGAAAGCCGAAGCCT , write its reported PBM binding z-score.
Reply: -0.136

Ask: Given the sequence AGTATTAGTTGACTTAGGGCAACCGATACGACGC , write its reported PBM binding z-score.
Reply: 1.02

Ask: Given the sequence CCTCGGAGGACAACGGGAGGTCAGAGCTGCCAGA , write its reported PBM binding z-score.
Reply: 3.4

Ask: Given the sequence CCTTACAGGTCACTGACAGGTTATAGCATTTGGA , write its reported PBM binding z-score.
Reply: 5.46

Ask: Given the sequence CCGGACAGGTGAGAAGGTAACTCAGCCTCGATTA , write its reported PBM binding z-score.
Reply: 0.787

Next:
Ask: Given the sequence CAGCCTAGGACAGGGCCAGTATAGGAGGAACGTT , write its reported PBM binding z-score.
Reply: 0.0959

Ask: Given the sequence CGAGCTAGGTCAGAACAGGACAGTGAAGGATGAT , write its reported PBM binding z-score.
Reply: 3.53

Ask: Given the sequence CCTGCTGGGCCACGAAAGGTCATTGATTCAGTGA , write its reported PBM binding z-score.
Reply: 4.55

Ask: Given the sequence CGTCCAAGGTCACAGGTCAGTGAAGAGATGACGG , write its reported PBM binding z-score.
Reply: 7.51

Ask: Given the sequence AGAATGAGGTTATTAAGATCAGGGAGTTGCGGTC , write its reported PBM binding z-score.
Reply: 0.672
